Assay Target: Glucocorticoid receptor (Homo sapiens) (UniProt P04150)
Sequence (P04150 whole entry, looked up): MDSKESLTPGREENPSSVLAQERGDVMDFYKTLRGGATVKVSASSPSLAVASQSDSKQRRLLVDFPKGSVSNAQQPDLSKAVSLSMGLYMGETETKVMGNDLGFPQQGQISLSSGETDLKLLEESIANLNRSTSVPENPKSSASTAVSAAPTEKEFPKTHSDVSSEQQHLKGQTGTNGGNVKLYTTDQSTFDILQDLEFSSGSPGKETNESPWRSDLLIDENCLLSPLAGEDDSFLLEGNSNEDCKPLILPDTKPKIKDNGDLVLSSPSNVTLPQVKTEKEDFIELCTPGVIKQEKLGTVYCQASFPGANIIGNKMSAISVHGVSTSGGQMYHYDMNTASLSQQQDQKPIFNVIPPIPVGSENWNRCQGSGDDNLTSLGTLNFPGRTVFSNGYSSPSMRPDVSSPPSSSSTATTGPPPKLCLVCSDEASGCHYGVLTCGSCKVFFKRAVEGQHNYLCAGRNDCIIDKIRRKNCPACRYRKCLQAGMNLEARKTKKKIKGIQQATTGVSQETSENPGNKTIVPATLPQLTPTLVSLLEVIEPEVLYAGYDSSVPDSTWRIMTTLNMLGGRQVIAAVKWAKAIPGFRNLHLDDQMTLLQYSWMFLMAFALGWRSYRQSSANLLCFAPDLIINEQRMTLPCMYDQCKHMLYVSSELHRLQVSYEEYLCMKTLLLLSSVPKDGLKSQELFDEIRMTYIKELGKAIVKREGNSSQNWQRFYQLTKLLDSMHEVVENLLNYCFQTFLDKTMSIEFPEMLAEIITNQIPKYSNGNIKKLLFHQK
Experiment Summary: qHTS assay to identify small molecule agonists of the glucocorticoid receptor (GR) signaling pathway (AID 720691); as to activation: % is scaled to controls: 0 for no effect and ±100 for the full control effect
Run Parameters: GR-bla HeLa, beta-lactamase reporter ratio, 18 h
Active and inactive are the calls of the source. Calls follow the shape of the dose curve; as a rule, active = well fitted activation curve with a large enough effect in the signal ratio in the repeat runs (not every such curve was filed as active); inconclusive = weak or mixed curves, or effect the other way; inactive = no such curve, though single readings can be large or run the other way; the % refers to the signal ratio.
Labels: 1.0 (active), 0.0 (inactive)

[
  {
    "Compound": "COCC(C)OC(C)=O (stereo unspecified)",
    "Class": 0.0
  },
  {
    "Compound": "CCCCCCCCCCCc1ccccc1",
    "Class": 0.0
  },
  {
    "Compound": "CCOC(=O)Cc1cccc2ccccc12",
    "Class": 0.0
  },
  {
    "Compound": "CCCCCCc1ccc(-c2ccc(C#N)cc2)cc1",
    "Class": 0.0
  },
  {
    "Compound": "CCCCCCCN",
    "Class": 0.0
  },
  {
    "Compound": "Cc1nn(C)c(Oc2ccccc2)c1/C=N/OCc1ccc(C(=O)OC(C)(C)C)cc1",
    "Class": 0.0
  },
  {
    "Compound": "C[C@H](CCC(=O)O)[C@H]1CC[C@H]2[C@@H]3CC[C@@H]4C[C@H](O)CC[C@]4(C)[C@H]3C[C@H](O)[C@]12C",
    "Class": 0.0
  },
  {
    "Compound": "C[N+](C)(C)CCOC(=O)CCC(=O)OCC[N+](C)(C)C",
    "Class": 0.0
  },
  {
    "Compound": "O=C(O)c1nc(Cl)c(Cl)c(Cl)c1Cl",
    "Class": 0.0
  },
  {
    "Compound": "COS(=O)(=O)C(F)(F)F",
    "Class": 0.0
  },
  {
    "Compound": "O=S(c1cc(Cl)cc(Cl)c1O)c1cc(Cl)cc(Cl)c1O",
    "Class": 0.0
  },
  {
    "Compound": "C[N+]1(C)CCC(OC(=O)C(O)(c2ccccc2)C2CCCC2)C1 (stereo unspecified)",
    "Class": 0.0
  },
  {
    "Compound": "CCC(=O)O[C@]1(C(=O)CCl)[C@@H](C)C[C@H]2[C@@H]3CCC4=CC(=O)C=C[C@]4(C)[C@@]3(F)[C@@H](O)C[C@@]21C",
    "Class": 1.0
  },
  {
    "Compound": "CO[C@@H]1[C@H](OC(=O)/C=C/C=C/C=C/C=C/C(=O)O)CC[C@]2(CO2)[C@H]1[C@@]1(C)O[C@@H]1CC=C(C)C",
    "Class": 0.0
  },
  {
    "Compound": "NCCCN1CCOCC1",
    "Class": 0.0
  },
  {
    "Compound": "O=C1OC(CN2CCOCC2)CN1/N=C/c1ccc([N+](=O)[O-])o1 (stereo unspecified)",
    "Class": 0.0
  },
  {
    "Compound": "CC(CSC(=O)c1ccccc1)C(=O)N1C[C@@H](Sc2ccccc2)C[C@H]1C(=O)O (stereo partly specified)",
    "Class": 0.0
  },
  {
    "Compound": "CCCCC(=O)OCC(=O)[C@H]1[C@H](C)C[C@H]2[C@@H]3C[C@H](F)C4=CC(=O)C=C[C@]4(C)[C@@]3(F)[C@@H](O)C[C@@]21C",
    "Class": 1.0
  },
  {
    "Compound": "C=C(C)C(=O)OCCOCC",
    "Class": 0.0
  },
  {
    "Compound": "C[Si](C)(CCCN)O[Si](C)(C)CCCN",
    "Class": 0.0
  },
  {
    "Compound": "CC[N+](C)(CC)CCOC(=O)C(O)(c1ccccc1)C1CCCCC1 (stereo unspecified)",
    "Class": 0.0
  }
]
